System: P. aeruginosa
Experiment: MIC, broth microdilution, CDC/FDA Antibiotic Resistance Isolate Bank (Example 7, Tables 10, 15)
Format: cell-based
Conditions: Pseudomonas aeruginosa, P. aeruginosa KUB No. 5693, AR Bank # 260; read-out: MIC
measured property: log10(MIC) (log10 of the value in µg/mL)
Remember, log10 of MIC, in µg/mL.

molecule	log10(MIC)
C[C@H]1[C@H](NC(=O)/C(=N\OC(C)(C)C(=O)O)c2csc(N)n2)C(=O)N1S(=O)(=O)O [Aztreonam, aztreonam]	0.90
CO/N=C(\C(=O)N[C@@H]1C(=O)N2C(C(=O)[O-])=C(C[n+]3ccn4ncccc43)CS[C@H]12)c1nsc(N)n1 [Cefozopran, cefozopran]	0.60

Input line: Requested field: log10(MIC). Item: CC(C)(O/N=C(\C(=O)N[C@@H]1C(=O)N2C(C(=O)[O-])=C(C[N+]3(CCNC(=O)c4ccc(O)c(O)c4Cl)CCCC3)CS[C@H]12)c1csc(N)n1)C(=O)O [Cefiderocol, cefiderocol]
Output line: -0.60

Input line: Requested field: log10(MIC). Item: CN(C)c1cc(NC(=O)CNC(C)(C)C)c(O)c2c1C[C@H]1C[C@H]3[C@H](N(C)C)C(O)=C(C(N)=O)C(=O)[C@@]3(O)C(O)=C1C2=O [Tigecycline, tigecycline]
Output line: 0.30

Input line: Requested field: log10(MIC). Item: NCC[C@H](O)C(=O)N[C@@H]1C[C@H](N)[C@@H](O[C@H]2O[C@H](CN)[C@@H](O)[C@H](O)[C@H]2O)[C@H](O)[C@H]1O[C@H]1O[C@H](CO)[C@@H](O)[C@H](N)[C@H]1O [Amikacin, amikacin]
Output line: 1.81

Input line: Requested field: log10(MIC). Item: C[C@H]1COc2c(N3CCN(C)CC3)c(F)cc3c(=O)c(C(=O)O)cn1c23 [Levofloxacin, levofloxacin]
Output line: 1.51

----------
Target: OXA-48 (Klebsiella pneumoniae, UniProt Q6XEC0)
Sequence (Q6XEC0 23-265 limits assumed): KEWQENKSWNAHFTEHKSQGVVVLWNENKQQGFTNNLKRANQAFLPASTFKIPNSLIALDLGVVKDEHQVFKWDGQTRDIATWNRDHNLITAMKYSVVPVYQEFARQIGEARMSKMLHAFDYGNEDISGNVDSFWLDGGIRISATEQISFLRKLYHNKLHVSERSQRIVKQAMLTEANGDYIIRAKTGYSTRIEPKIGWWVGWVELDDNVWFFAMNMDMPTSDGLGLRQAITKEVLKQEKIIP
Experiment: Ki,app against β-lactamase (Example 1, Table 1)
Type: biochemical
Details: OXA-48, class D; 30 min preincubation; n.d.: too low inhibitor activity at 100 µmol/L; read-out: Ki app
measured property: Ki (nM)
Please state the figure in nM; there is no need to write the unit.

Input line: Write down the reported Ki of O=C(O)[C@H]1/C(=C/CO)O[C@@H]2CC(=O)N21 [Clavulanate, clavulanate] , test system: OXA-48 (Klebsiella pneumoniae, UniProt Q6XEC0).
Output line: 103

----------
Test system: Enterobacterales
Assay: MIC, broth microdilution, CDC/FDA Antibiotic Resistance Isolate Bank (Example 7, Tables 8, 11, 12)
Assay type: cell-based
Details: Proteus mirabilis, KUB No. 5773, AR Bank # 377; read-out: MIC
Reported MIC by item:
Please state the figure in µg/mL; there is no need to write the unit.

Field: example entries. Status: answers known.
smi	observed result
C[C@H]1COc2c(N3CCN(C)CC3)c(F)cc3c(=O)c(C(=O)O)cn1c23	16
CO/N=C(\C(=O)N[C@@H]1C(=O)N2C(C(=O)[O-])=C(C[n+]3ccn4ncccc43)CS[C@H]12)c1nsc(N)n1	16
C[C@H]1[C@H](NC(=O)/C(=N\OC(C)(C)C(=O)O)c2csc(N)n2)C(=O)N1S(=O)(=O)O	4
CN(C)c1cc(NC(=O)CNC(C)(C)C)c(O)c2c1C[C@H]1C[C@H]3[C@H](N(C)C)C(O)=C(C(N)=O)C(=O)[C@@]3(O)C(O)=C1C2=O	4

Moving on to another compound below.
Input line: Requested field: MIC. Item: `NCC[C@H](O)C(=O)N[C@@H]1C[C@H](N)[C@@H](O[C@H]2O[C@H](CN)[C@@H](O)[C@H](O)[C@H]2O)[C@H](O)[C@H]1O[C@H]1O[C@H](CO)[C@@H](O)[C@H](N)[C@H]1O`
Output line: 2
